Target: UniProt Q86WV6
Sequence (Q86WV6 whole entry H232R): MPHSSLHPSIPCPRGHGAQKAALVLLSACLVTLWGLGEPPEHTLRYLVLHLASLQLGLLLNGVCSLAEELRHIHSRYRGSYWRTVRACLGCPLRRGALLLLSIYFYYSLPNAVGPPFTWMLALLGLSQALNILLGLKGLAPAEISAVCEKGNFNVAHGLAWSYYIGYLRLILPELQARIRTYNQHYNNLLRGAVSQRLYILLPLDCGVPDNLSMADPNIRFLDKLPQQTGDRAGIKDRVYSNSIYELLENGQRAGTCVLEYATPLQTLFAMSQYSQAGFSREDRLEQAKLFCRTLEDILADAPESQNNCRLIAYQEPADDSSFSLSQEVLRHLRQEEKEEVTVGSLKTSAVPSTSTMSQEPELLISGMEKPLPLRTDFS
Assay: Fluorescence Thermal Shift assay
Format: binding
Conditions: 50 μM compound; STING 0.1 mg/ml; 20 minutes preincubation; read-out: [hSTING] FTS, ΔTm [° C.] for 50 μM
// ΔTm at 50 µM lookup, one value per entry

Here's what some known entries look like.
{"columns": ["compound", "ΔTm at 50 µM"],
 "data": [
  ["Cc1oc2ccccc2c(=O)c1CN(CCCc1cccnc1)Cc1ccncc1", "> 2.5 °C"],
  ["COc1cc(CN(CCCc2ccnnc2)Cc2cn(C)c3ccccc3c2=O)ccn1", "< 2.5 °C"],
  ["Cc1oc2cc(N3CCOCC3)c(F)cc2c(=O)c1CN(CCCc1cccnc1)Cc1ccncc1", "> 2.5 °C"],
  ["COc1cc(CN(CCCc2cccnc2)Cc2c(C)oc3cc(N4CCOCC4)c(F)cc3c2=O)ccn1", "< 2.5 °C"]
]}

Form field: reported ΔTm at 50 µM of Cc1cc(CN(CCCn2ccnc2)Cc2coc3ccccc3c2=O)ccn1
< 2.5 °C

Form field: reported ΔTm at 50 µM of Cc1ccc2c(=O)c(CN(CCCn3ccnc3)Cc3ccncc3)coc2c1C
> 2.5 °C

Form field: reported ΔTm at 50 µM of O=c1c(CN(CCCn2ccnn2)Cc2ccncc2)coc2ccccc12
< 2.5 °C

Form field: reported ΔTm at 50 µM of COc1cc(CN(CCCn2ccnc2)Cc2coc3ccccc3c2=O)ccn1
< 2.5 °C

Form field: reported ΔTm at 50 µM of Cc1oc2cc(Br)ccc2c(=O)c1CN(CCCn1ccnc1)Cc1ccncc1
> 2.5 °C

Form field: reported ΔTm at 50 µM of O=c1c(CN(CCCn2ccnc2)Cc2ccncc2)c[nH]c2ccccc12
< 2.5 °C

Form field: reported ΔTm at 50 µM of O=c1c(CN(CCCn2cccc2)Cc2ccncc2)coc2ccccc12
< 2.5 °C

Form field: reported ΔTm at 50 µM of O=c1c(CN(CCCn2ccnc2)Cc2ccncc2)coc2cc(O)ccc12
> 2.5 °C

Form field: reported ΔTm at 50 µM of COc1ccc2c(=O)c(CN(CCCn3ccnc3)Cc3ccncc3)coc2c1
> 2.5 °C

Form field: reported ΔTm at 50 µM of COc1cc(CN(CCCn2cnc3cncnc32)Cc2c(C)oc3cc(N4CCN(C)CC4)c(F)cc3c2=O)ccn1
> 2.5 °C
